Assay: Solubility in water at 25° C.
Assay type: physicochemical
reported-endpoint: improvement of solubility as compared with compound 1

Worked cases, answers included:
[[record]]
compound = "Nc1ncnc2c1c(-c1ccc(Oc3ccccc3)cc1)nn2C1CCN(C2CN(C3CN(c4ccc5c(c4)C(=O)N(C4CCC(=O)NC4=O)C5=O)C3)C2)CC1.O=C(O)/C=C\\C(=O)O.O=C(O)/C=C\\C(=O)O (centres unmarked) [crystal form I of compound 3]"
value = "more than 15 times"

[[record]]
compound = "Nc1ncnc2c1c(-c1ccc(Oc3ccccc3)cc1)nn2C1CCN(C2CN(C3CN(c4ccc5c(c4)C(=O)N(C4CCC(=O)NC4=O)C5=O)C3)C2)CC1.O=C(O)C[C@H](O)C(=O)O (centres unmarked)"
value = "more than 15 times"

[[record]]
compound = "Nc1ncnc2c1c(-c1ccc(Oc3ccccc3)cc1)nn2C1CCN(C2CN(C3CN(c4ccc5c(c4)C(=O)N(C4CCC(=O)NC4=O)C5=O)C3)C2)CC1.O=C(O)C(O)C(O)C(=O)O (centres unmarked)"
value = "more than 15 times"

[[record]]
compound = "Nc1ncnc2c1c(-c1ccc(Oc3ccccc3)cc1)nn2C1CCN(C2CN(C3CN(c4ccc5c(c4)C(=O)N(C4CCC(=O)NC4=O)C5=O)C3)C2)CC1.O=C(O)C(=O)O (centres unmarked)"
value = "more than 15 times"


Need improvement of solubility as compared with compound 1 of Nc1ncnc2c1c(-c1ccc(Oc3ccccc3)cc1)nn2C1CCN(C2CN(C3CN(c4ccc5c(c4)C(=O)N(C4CCC(=O)NC4=O)C5=O)C3)C2)CC1.O=C(O)CC(O)(CC(=O)O)C(=O)O (centres unmarked) , thanks.
more than 15 times

###

# AUC(0-t) annotations
Test: Pharmacokinetic test of dogs
Type: in vivo
Conditions: male, dog, po; Beagle dogs, plasma, i.g. (10 mg/kg)
Write the value in ng·h/mL as a bare number.

[[record]]
compound = "Nc1ncnc2c1c(-c1ccc(Oc3ccccc3)cc1)nn2C1CCN(C2CN(C3CN(c4ccc5c(c4)C(=O)N(C4CCC(=O)NC4=O)C5=O)C3)C2)CC1 (centres unmarked) [amorphous form of compound 1]"
value = 26.9

[[record]]
compound = "Nc1ncnc2c1c(-c1ccc(Oc3ccccc3)cc1)nn2C1CCN(C2CN(C3CN(c4ccc5c(c4)C(=O)N(C4CCC(=O)NC4=O)C5=O)C3)C2)CC1.O=C(O)C(O)C(O)C(=O)O (centres unmarked) [Compound 7]"
value = 95.5

[[record]]
compound = "Nc1ncnc2c1c(-c1ccc(Oc3ccccc3)cc1)nn2C1CCN(C2CN(C3CN(c4ccc5c(c4)C(=O)N(C4CCC(=O)NC4=O)C5=O)C3)C2)CC1.O=C(O)/C=C\\C(=O)O.O=C(O)/C=C\\C(=O)O (centres unmarked) [crystal form I of compound 3]"
value = 75.1


// returns reported AUC(0-t) for input Nc1ncnc2c1c(-c1ccc(Oc3ccccc3)cc1)nn2C1CCN(C2CN(C3CN(c4ccc5c(c4)C(=O)N(C4CCC(=O)NC4=O)C5=O)C3)C2)CC1.O=C(O)CC(O)(CC(=O)O)C(=O)O (centres unmarked) [Compound 5]
59.5

Fill in the blank: the reported AUC(0-t) of Nc1ncnc2c1c(-c1ccc(Oc3ccccc3)cc1)nn2C1CCN(C2CN(C3CN(c4ccc5c(c4)C(=O)N(C4CCC(=O)NC4=O)C5=O)C3)C2)CC1.O=C(O)C(=O)O (centres unmarked) [Compound 9] is ____.
79.4

###

Test: Solubility in water at 25° C.
Assay type: physicochemical
This section presents molecules with their documented solubility values.
Write it as a number; the unit µg/mL goes unstated.

[[record]]
molecule = "Nc1ncnc2c1c(-c1ccc(Oc3ccccc3)cc1)nn2C1CCN(C2CN(C3CN(c4ccc5c(c4)C(=O)N(C4CCC(=O)NC4=O)C5=O)C3)C2)CC1.O=C(O)CC(O)(CC(=O)O)C(=O)O (stereo not drawn) [Compound 5]"
reported_endpoint = "solubility"
value = 166


May I ask what solubility has been recorded for Nc1ncnc2c1c(-c1ccc(Oc3ccccc3)cc1)nn2C1CCN(C2CN(C3CN(c4ccc5c(c4)C(=O)N(C4CCC(=O)NC4=O)C5=O)C3)C2)CC1.O=C(O)C(=O)O (stereo not drawn) [Compound 9] ?
346

What value of solubility has been reported for the following molecule? Nc1ncnc2c1c(-c1ccc(Oc3ccccc3)cc1)nn2C1CCN(C2CN(C3CN(c4ccc5c(c4)C(=O)N(C4CCC(=O)NC4=O)C5=O)C3)C2)CC1.O=C(O)/C=C\C(=O)O.O=C(O)/C=C\C(=O)O (stereo not drawn) [crystal form I of compound 3]
172
